System: A549
Experiment: Cytotoxicity against human A549 cells
Type: functional, cell-based
Assignment: determine reported IC50 for the given compounds.

Record CCCC(=O)O[C@@H]1C/C(C)=C\[C@@H]2OC(=O)[C@]3(C)O[C@]23[C@H](OC(C)=O)[C@H]2C(C)=C[C@@H](O)[C@H](OC(C)=O)[C@]2(C)[C@H]1OC(C)=O [STECHOLIDE I] , field IC50: > 10 µg/mL

Record CC(=O)O[C@H]1C/C(C)=C\[C@@H]2OC(=O)[C@]3(C)O[C@]23[C@@H](OC(C)=O)[C@H]2C(C)=CC[C@H](OC(C)=O)[C@]2(C)[C@H]1OC(C)=O , field IC50: > 10 µg/mL

Record CC(=O)O[C@H]1C=C[C@@](C)(O)[C@@H]2[C@H](OC(C)=O)[C@@]34O[C@@]3(C)C(=O)O[C@H]4/C=C(/C)CC[C@H](OC(C)=O)[C@@]12C , field IC50: > 10 µg/mL
